# measurementTarget: Beta-lactamase (Escherichia coli K-12)
# Sequence (P00811 whole entry): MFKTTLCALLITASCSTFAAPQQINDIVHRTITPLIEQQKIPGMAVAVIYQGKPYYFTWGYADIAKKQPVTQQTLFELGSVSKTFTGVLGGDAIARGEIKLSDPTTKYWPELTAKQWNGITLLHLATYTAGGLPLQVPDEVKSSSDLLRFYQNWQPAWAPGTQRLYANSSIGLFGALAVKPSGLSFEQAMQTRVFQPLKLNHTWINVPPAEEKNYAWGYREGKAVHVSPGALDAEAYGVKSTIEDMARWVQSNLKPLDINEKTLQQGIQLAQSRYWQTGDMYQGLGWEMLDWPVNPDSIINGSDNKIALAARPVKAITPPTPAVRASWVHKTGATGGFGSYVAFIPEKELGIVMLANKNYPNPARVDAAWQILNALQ
# protocolSummary: Binding affinity towards AmpC beta-lactamase binding site from Escherichia coli
pKi: −log10 of the molar value.
property: pKi

- testSmiles: "CC(C)(O/N=C(/C(=O)NCB(O)O)c1csc(N)n1)C(=O)O"
  property: "pKi"
  experimentalValue: 7.70
